The measurements presented in this section are drawn from patent US20240182556A1.

# systemName: T1, N-terminal biotinylated PE9413 (not fully specified; N-terminal biotin)
# T1 construct: also called PE9411; N-ter PE9413
# T1 peptide: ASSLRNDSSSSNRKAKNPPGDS
# runDescription: yeast-displayed scFv, flow cytometry titration of N-terminal biotinylated peptide
endpointLabel: Kd (nM)
Reply numerically in nM, unit not repeated.

Would you please look over these solved cases?
* D14P scFv displayed on yeast (scFv, V domains shown, Aga2-anchored, VH-VL orientation; not shown: linker; SV5 tag) VH: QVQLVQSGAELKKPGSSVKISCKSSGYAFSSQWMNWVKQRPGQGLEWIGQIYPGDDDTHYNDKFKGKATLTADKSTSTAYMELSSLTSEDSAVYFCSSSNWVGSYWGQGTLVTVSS VL: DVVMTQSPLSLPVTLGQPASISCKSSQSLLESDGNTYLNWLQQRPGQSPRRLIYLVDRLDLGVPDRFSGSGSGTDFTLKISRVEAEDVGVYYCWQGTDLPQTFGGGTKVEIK | 5.38
* B124P scFv displayed on yeast (scFv, V domains shown, Aga2-anchored, VH-VL orientation; not shown: linker; SV5 tag) VH: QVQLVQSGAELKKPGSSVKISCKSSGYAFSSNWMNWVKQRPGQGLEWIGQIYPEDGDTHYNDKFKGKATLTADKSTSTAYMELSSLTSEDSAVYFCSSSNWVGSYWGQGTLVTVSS VL: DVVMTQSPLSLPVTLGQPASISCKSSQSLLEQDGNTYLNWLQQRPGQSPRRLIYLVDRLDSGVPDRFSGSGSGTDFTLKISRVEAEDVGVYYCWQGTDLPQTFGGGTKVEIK | 5

Here is the next item to consider.
Data request: Request the reported Kd associated with A64P scFv displayed on yeast (scFv, V domains shown, Aga2-anchored, VH-VL orientation; not shown: linker; SV5 tag) VH: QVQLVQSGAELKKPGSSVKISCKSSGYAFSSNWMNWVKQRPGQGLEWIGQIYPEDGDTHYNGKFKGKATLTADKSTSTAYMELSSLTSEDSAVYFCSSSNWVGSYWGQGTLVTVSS VL: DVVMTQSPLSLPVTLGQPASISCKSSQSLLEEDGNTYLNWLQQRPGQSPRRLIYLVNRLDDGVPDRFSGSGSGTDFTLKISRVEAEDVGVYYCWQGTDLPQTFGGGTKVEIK
Data returned: 5.23
